tested on: A549 cells; assay: Cell migration assay (24-well transwell, laminin); assay type: cell-based, human; details: Homo sapiens, A549, 6 h, laminin 10 μg/mL in lower well, test compounds 0.39˜100 μM, migrated cells counted, read-out: Inhibitory activity against cell migration
pIC50: −log10 of the molar value.
Reported Endpoint: pIC50

Param item = COc1ccc(CCN(c2nc3cc(Br)ccc3s2)C(C)c2ccc(C(=O)O)cc2)cc1 (stereo not shown) ; retrieve measured pIC50.
< 5.00

Further cases:
Need pIC50, item CC(c1ccc(C(=O)O)cc1)N(CCc1cccc(F)c1F)c1nc2cccc(F)c2s1 (stereo not shown)
< 5.00

For CC(c1ccc(C(=O)O)cc1)N(CCc1ccc(Cl)cc1Cl)c1nc2cccc(F)c2s1 (stereo not shown) , what is its reported pIC50?
< 5.00

If you can, please state the reported pIC50 value of CCC(c1ccc(C(=O)O)cc1)N(CCc1cc(C)c(OC)cc1C)c1nc2cccc(F)c2s1 (stereo not shown) .
< 5.00

Reported pIC50, compound "COc1ccc(CCN(Cc2ccc(C(=O)O)cc2)c2nc3cccc(C(=O)O)c3s2)cc1" : ____
< 5.00

Tell me the measured pIC50 of "COc1ccc(CCN(Cc2ccc(C(=O)O)cc2)c2nc3cccc(F)c3s2)c(F)c1" , please.
> 6.00

Report pIC50 for "O=C(O)c1ccc(CN(CCc2ccccc2)c2nc3cccc(F)c3s2)cc1" please.
5.00 to 6.00
